These data points were gathered from the RNAGym collection of RNA variant scans (doi:10.7554/elife.80360).

So I've got a bunch of variants here, and I need their self-cleavage values.
B1: HDV Ribozyme (parent)
chain: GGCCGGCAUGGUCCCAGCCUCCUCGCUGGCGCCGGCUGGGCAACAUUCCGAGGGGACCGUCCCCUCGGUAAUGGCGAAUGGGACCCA

Variants of: B1
Test: self-cleavage, relative activity (ratio to wild type); higher = more cleavage; co-transcriptional
Numbers only.

Sample records with self-cleavage:
C66U A77U : 0.501
G25C A43G : 0
G28C C85U : 0
G67A U72C : 0.539

Below are some variants; for each one, tell me its self-cleavage.
1. U12C G81C
2. G29C U79C
3. A8G C61G
4. C44G C64U
5. G74C A83G
6. G59C C75A
7. C48A G59A

Result:
[0.18, 0.138, 1.04, 0.686, 0.104, 0.219, 1.22]

Quick batch: self-cleavage for everything below.
1. G68C C75U
2. A70U C84A
3. C13U G76A
4. U9G G17A

Result:
1: 0.272; 2: 0.969; 3: 0.743; 4: 0.225
